Assayed system: T1, IL-18R on HEK-Blue IL18R reporter cells (UniProt Q13478 19-541; O95256 20-599)
T1 sequence (looked up) 1: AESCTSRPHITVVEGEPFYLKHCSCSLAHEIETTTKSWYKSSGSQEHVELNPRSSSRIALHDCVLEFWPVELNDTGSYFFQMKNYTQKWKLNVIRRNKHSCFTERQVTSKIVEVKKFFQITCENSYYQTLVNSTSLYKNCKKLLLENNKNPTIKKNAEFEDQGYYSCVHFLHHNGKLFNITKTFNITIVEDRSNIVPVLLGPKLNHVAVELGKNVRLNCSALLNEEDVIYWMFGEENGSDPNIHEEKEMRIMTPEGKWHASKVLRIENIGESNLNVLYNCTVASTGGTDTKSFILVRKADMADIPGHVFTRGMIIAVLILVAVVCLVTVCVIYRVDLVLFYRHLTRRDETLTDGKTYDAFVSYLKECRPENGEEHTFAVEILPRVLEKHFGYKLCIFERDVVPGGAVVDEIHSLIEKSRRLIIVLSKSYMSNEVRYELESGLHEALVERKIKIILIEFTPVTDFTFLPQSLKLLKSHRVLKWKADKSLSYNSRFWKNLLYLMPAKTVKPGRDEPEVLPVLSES
T1 sequence (looked up) 2: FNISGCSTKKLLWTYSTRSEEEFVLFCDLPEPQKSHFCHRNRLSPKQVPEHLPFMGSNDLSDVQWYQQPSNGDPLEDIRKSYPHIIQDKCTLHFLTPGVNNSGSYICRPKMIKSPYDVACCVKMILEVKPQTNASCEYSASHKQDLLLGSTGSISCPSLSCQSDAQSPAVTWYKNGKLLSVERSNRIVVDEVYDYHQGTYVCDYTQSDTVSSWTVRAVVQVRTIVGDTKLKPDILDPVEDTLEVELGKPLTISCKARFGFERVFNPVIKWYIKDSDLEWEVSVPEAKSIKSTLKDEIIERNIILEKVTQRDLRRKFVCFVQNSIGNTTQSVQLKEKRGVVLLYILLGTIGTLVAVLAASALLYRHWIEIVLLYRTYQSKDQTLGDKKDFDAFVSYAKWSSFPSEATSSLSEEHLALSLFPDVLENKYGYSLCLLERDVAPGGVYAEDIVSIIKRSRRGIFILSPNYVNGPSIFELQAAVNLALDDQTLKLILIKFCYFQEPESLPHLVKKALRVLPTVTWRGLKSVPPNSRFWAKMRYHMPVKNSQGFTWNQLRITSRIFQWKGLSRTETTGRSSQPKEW
Test details: cell-based or functional assay
Measurement type: EC50, HEK-Blue IL18R SEAP reporter (pM)
API: value field is a number in pM; no unit string.

Consider the worked cases shown below.
{"columns": ["Binder", "Recorded measurement"],
 "data": [
  ["IL-18 polypeptide C147 (ligand) YFGKLESKLSIIRNLNDQVLFIDQGNRPLFEDMTDSDARDNAPRTIFIISMYAASQPRGMAVTISVKCEKISTLSAENKIISFKEMNPPDNIKDTKSDIIFFQRSVPGHDNKMQFESSSYEGYFLAAEKERDLFKLILKKEDELGDRSIMFTVQNED", 1],
  ["IL-18 polypeptide SEQ ID NO: 42 (E06K, K53A, S55A, T63A) (ligand) YFGKLKSKLSVIRNLNDQVLFIDQGNRPLFEDMTDSDCRDNAPRTIFIISMYADAQPRGMAVAISVKCEKISTLSCENKIISFKEMNPPDNIKDTKSDIIFFQRSVPGHDNKMQFESSSYEGYFLACEKERDLFKLILKKEDELGDRSIMFTVQNED", 0.79]
]}

Lab note: IL-18 polypeptide C192 (SEQ ID NO: 70) (ligand) GYFGKLKSKLSIIRNLNDQVLFIDQGNRPLFEDMTDSDARDNAPRTIFIISGYADSQPRGMAVAISVKCEKISTLSAENKIISFKEMNPPDNIKDTKSDIIFFQRSVPGHDNKMQFESSSYEGYFLAAEKERDLFKLILKKEDELGDRSIMFTVQNED gave EC50, HEK-Blue IL18R SEAP reporter of 14
